- Experimental target: Beta-2 adrenergic receptor (Homo sapiens, UniProt P07550)
- Sequence (P07550 whole entry): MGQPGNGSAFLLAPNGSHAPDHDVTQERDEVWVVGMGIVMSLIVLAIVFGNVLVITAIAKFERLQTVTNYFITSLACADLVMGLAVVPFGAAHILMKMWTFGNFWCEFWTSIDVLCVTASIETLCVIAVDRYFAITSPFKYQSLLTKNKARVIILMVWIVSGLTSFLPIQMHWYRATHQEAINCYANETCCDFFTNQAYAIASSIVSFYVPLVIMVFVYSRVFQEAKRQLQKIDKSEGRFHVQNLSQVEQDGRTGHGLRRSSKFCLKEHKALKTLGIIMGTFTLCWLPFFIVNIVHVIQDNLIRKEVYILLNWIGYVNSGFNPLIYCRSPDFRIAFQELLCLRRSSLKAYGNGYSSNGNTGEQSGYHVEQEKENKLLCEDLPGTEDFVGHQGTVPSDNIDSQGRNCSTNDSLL
- Experimental protocol: Displacement of [3H](-)CGP 12177 from human recombinant beta2 adrenoceptor after 120 mins by scintillation counting method
pKi: −log10 of the molar value.
Reported pKi is given for each of the following compounds.
Parameter: pKi

compound="C=CCc1ccccc1OCC(O)CNCCOCCOCCOCCOCCNC(=O)C1C(C(=O)O)C(C(=O)O)C1C(=O)O (stereo not drawn)" experimental_target="Beta-2 adrenergic receptor (Homo sapiens, UniProt P07550)" observed=6.29
compound="CC(C)NCC(O)COc1ccccc1CCCSCC(=O)NCCOCCOCCNC(=O)CCCCCC1(C)C(/C=C/C=C/C=C2/N(CCCS(=O)(=O)O)c3ccc(S(=O)(=O)O)cc3C2(C)C)=[N+](CCCS(=O)(=O)[O-])c2ccc(S(=O)(=O)O)cc21 (stereo not drawn)" experimental_target="Beta-2 adrenergic receptor (Homo sapiens, UniProt P07550)" observed=7.59
compound="CC(C)NCC(O)COc1ccccc1CCCSCC(=O)NCCOCCOCCNC(=O)OC(C)(C)C (stereo not drawn)" experimental_target="Beta-2 adrenergic receptor (Homo sapiens, UniProt P07550)" observed=8.49

Each recorded value in this set is attributed to ChEMBL document CHEMBL4311931.
